system: human oral epidermoid carcinoma KB cells; assay: Growth inhibitory effect against KB cells (MTT, 72 h); assay type: cell-based; conditions: absorbance 590 nm
Recorded IC50 by entry

Known results for compounds:
| compound | result |
| --- | --- |
| CCCCCCCCCCCCCCCCCCOCC(COCCOCC[n+]1ccn(CC(=O)[O-])c1)OCCCCCC (stereo not shown) | 2.5 µg/mL |
| CCCCCCCCCCCCCCCCCCOCC(COCCOCC[N+](C)(C)CCCCCC(=O)[O-])OCC(C)=O (stereo not shown) | 2.5 µg/mL |
| CCCCCCCCCCCCCCCCCCOCC(COCCOCC[N+](C)(C)CCCCCC(=O)[O-])Oc1ncccn1 (stereo not shown) | 1.25 µg/mL |
| CCCCCCCCCCCCCCCCCCOCC(COCCOCC[n+]1ccn(CCC(C)(C)C(=O)OCC)c1)Oc1ncccn1 (stereo not shown) | 0.63 µg/mL |
| CCCCCCCCCCCCCCCCCCOCC(COCCOCC[n+]1ccn(CCCCc2ccc(C(=O)[O-])cc2)c1)Oc1ncccn1 (stereo not shown) | 0.32 µg/mL |
| CCCCCCCCCCCCCCCCCCOCC(COCCOCC[n+]1ccn(CCCC(=O)[O-])c1)Oc1ncccn1 (stereo not shown) | 1.25 µg/mL |

Now for the compound whose IC50 we want.
Task: Could you tell me which IC50 is on file for CCCCCCCCCCCCCCCCCCOCC(COCCOCC[n+]1ccn(CCC(C)(C)C(=O)[O-])c1)Oc1ncccn1 (stereo not shown) ?
Result: 0.63 µg/mL

---

tested on: human oral epidermoid carcinoma KB cells; experiment: Growth inhibitory effect against KB cells (MTT, 72 h); assay type: cell-based; settings: absorbance 590 nm
measuredProperty: IC50 (µg/mL)
Write down the numeric answer in µg/mL and omit the unit.

| compound | measuredProperty | readoutNumber |
| --- | --- | --- |
| CCCCCCCCCCCCCCCCCCOCC(COCCOCC[n+]1ccn(CCCCCCCCC(=O)[O-])c1)Oc1ncccn1 (stereo not shown) | IC50 | 0.16 |
| CCCCCCCCCCCCCCCCCCOCC(COCCOCCOCC[n+]1ccn(CCCC(=O)[O-])c1)Oc1ncccn1 (stereo not shown) | IC50 | 0.63 |
| O=C([O-])CCCn1cc[n+](CCOCCOCC(COCCCCCCCCCCCCC2CCCCC2)Oc2ncccn2)c1 (stereo not shown) | IC50 | 0.32 |

Task: Please give the measured IC50 for this compound: CCCCCCCCCCCCCCCCCCOCC(COCCOCC[n+]1ccn(CCCCCC(=O)OC)c1)Oc1ncccn1.[Cl-] (stereo not shown)
Result: 0.32

---

system: human oral epidermoid carcinoma KB cells; experiment: Growth inhibitory effect against KB cells (MTT, 72 h); type: cell-based; settings: absorbance 590 nm
measuredProperty: IC50 (µg/mL)
Respond with the bare value in µg/mL.

# annotated cases, reported IC50 shown
| compound | unitAbbrev | readoutNumber |
| --- | --- | --- |
| CCCCCCCCCCCCCCCCCCOCC(COCCOCC[n+]1ccn(CCCCCC(=O)[O-])c1)Oc1ncccn1 (centres unmarked) | µg/mL | 0.16 |
| CCCCCCCCCCCCCCCCCCOCC(COCCCC[n+]1cccc(CCC(=O)[O-])c1)Oc1ncccn1 (centres unmarked) | µg/mL | 0.63 |
| CCCCCCCCCCCCCCCCCCOCC(COCCCC[n+]1cccc(CCCCC(=O)[O-])c1)Oc1ncccn1 (centres unmarked) | µg/mL | 0.32 |
| CCCCCCCCCCCCCCCCCCOCC(COCCOCC[n+]1cccc(CCC(=O)[O-])c1)Oc1ncccn1 (centres unmarked) | µg/mL | 0.63 |
| CCCCCCCCCCCCCCCCCCOCC(COCCOCC[n+]1ccn(CCCOC(=O)CCC(=O)[O-])c1)Oc1ncccn1 (centres unmarked) | µg/mL | 0.32 |
| CCCCCCCCCCCCCCCCCCOCC(COCCOCCOCC[n+]1ccn(CCCCCC(=O)[O-])c1)Oc1ncccn1 (centres unmarked) | µg/mL | 0.32 |

Task: Tell me reported IC50 for CCCCCCCCCCCCCCCCCCOCC(COCCOCC[n+]1cccc(CCCOC(=O)CCC(=O)[O-])c1)Oc1ncccn1 (centres unmarked) , tested with human oral epidermoid carcinoma KB cells.
Result: 0.63

Task: API: value(readout= IC50, system= human oral epidermoid carcinoma KB cells, query= O=C([O-])CCCCCn1cc[n+](CCOCCOCC(COCCCCCCCCCCCCC2CCCCC2)Oc2ncccn2)c1 (centres unmarked) )
Result: 0.16

Task: Query the reported IC50 for human oral epidermoid carcinoma KB cells; item: CCCCCCCCCCCCCCCCCCOCC(COCCOCC[n+]1ccn(CCCCCC(=O)[O-])c1)OCC(C)=O (centres unmarked)
Result: 0.32

Task: Identify the measured IC50 of CCCCCCCCCCCCCCCCCCOCC(COCCOCC[N+]1(CCCCCC(=O)[O-])CCCC1)Oc1ncccn1 (centres unmarked) for human oral epidermoid carcinoma KB cells.
Result: 0.32

Task: Please tell me: IC50 of CCCCCCCCCCCCCCCCCCOCC(COCCOCC[n+]1ccn(CCCCC2CCC(C(=O)[O-])CC2)c1)Oc1ncccn1 (centres unmarked) , system human oral epidermoid carcinoma KB cells?
Result: 0.32
